# Procedure summary: absolute recovery over mixed-bed multilayer solid-phase extraction; higher = better recovery
# Test settings: wastewater effluent; enrichment method: SPE
Metric: absolute recovery (%)
Respond with the bare value in %.

Exam item: Given the entry CCOc1ccc(NC(=O)OC(C)C)cc1OCC [Diethofencarb] , report its measured absolute recovery.
Marked response: 95.6

Exam item: Given the entry NS(=O)(=O)c1cc(C(=O)[O-])c(NCc2ccco2)cc1Cl [Furosemid] , report its measured absolute recovery.
Marked response: 78.8

Exam item: Given the entry Cc1cccc(C)c1N(Cn1cccn1)C(=O)C(=O)[O-] [Metazachlor-OXA] , report its measured absolute recovery.
Marked response: 92.4

Exam item: Given the entry CCOC(=O)NCCOc1ccc(Oc2ccccc2)cc1 [Fenoxycarb] , report its measured absolute recovery.
Marked response: 113

Exam item: Given the entry CC([NH2+]C(C)(C)C)C(=O)c1cccc(Cl)c1 (centres undefined) [Bupropion] , report its measured absolute recovery.
Marked response: 74.3

Exam item: Given the entry CC12CCC(=O)C=C1CCC1C2C(O)CC2(C)C1CCC2(O)C(=O)CO (centres undefined) [Hydrocortison] , report its measured absolute recovery.
Marked response: 80.9

Exam item: Given the entry Cc1cc(N(C2OC(C(=O)[O-])C(O)C(O)C2O)S(=O)(=O)c2ccc(N)cc2)no1 (centres undefined) [Sulfamethoxazole-N1-Glucuronide] , report its measured absolute recovery.
Marked response: 49.2

Exam item: Given the entry CCOc1cc(Oc2ccc(C(F)(F)F)cc2Cl)ccc1[N+](=O)[O-] [Oxyfluorfen] , report its measured absolute recovery.
Marked response: 82.2

Exam item: Given the entry CC1(C(=O)[O-])CCC2(C)CCC3(C)C(=CC(=O)C4C5(C)CCC(O)C(C)(C)C5CCC43C)C2C1 (stereo not drawn) [18-beta-Glycyrrhetinic-acid] , report its measured absolute recovery.
Marked response: 84.8

Exam item: Given the entry Nc1nc(N)[nH+]c(NC2CC2)n1 [Cyromazin] , report its measured absolute recovery.
Marked response: 88.1

Exam item: Given the entry Cc1ccc(NS(=O)(=O)N(C)C)cc1 [N-N-dimethyl-N-(4-methylphenyl)-sulfamide] , report its measured absolute recovery.
Marked response: 91.7

Exam item: Given the entry CCC(=O)OC(Cc1ccccc1)(c1ccccc1)C(C)C[NH+](C)C (centres undefined) [Propoxyphene] , report its measured absolute recovery.
Marked response: 91.5

Exam item: Given the entry CC[NH+]1CCCC1CNC(=O)c1cc(S(=O)(=O)CC)c(N)cc1OC (centres undefined) [Amisulprid] , report its measured absolute recovery.
Marked response: 93.4

Exam item: Given the entry COc1cc2[nH+]c(N(C)CCCNC(=O)C3CCCO3)nc(N)c2cc1OC (centres undefined) [Alfuzosin] , report its measured absolute recovery.
Marked response: 96

Exam item: Given the entry CC(C)N(C(=O)CS(=O)(=O)[O-])c1ccccc1 [Propachlor-ESA] , report its measured absolute recovery.
Marked response: 91.1

Exam item: Given the entry CC1COC(Cn2cncn2)(c2ccc(Oc3ccc(Cl)cc3)cc2Cl)O1 (centres undefined) [Difenoconazol] , report its measured absolute recovery.
Marked response: 102

Exam item: Given the entry CC(Cn1cnc2c(N)ncnc21)OCP(=O)([O-])O (centres undefined) [Tenofovir] , report its measured absolute recovery.
Marked response: 1.9

Exam item: Given the entry CCOP(=O)(OCC)OCC [Triethylphosphat] , report its measured absolute recovery.
Marked response: 81.5

Exam item: Given the entry Cc1cccc(C)c1N(Cn1cccn1)C(=O)CCl [Metazachlor] , report its measured absolute recovery.
Marked response: 93.4
